Molecular target: JAK1 (Homo sapiens (Human), UniProt P23458)
Sequence (P23458 875-1153): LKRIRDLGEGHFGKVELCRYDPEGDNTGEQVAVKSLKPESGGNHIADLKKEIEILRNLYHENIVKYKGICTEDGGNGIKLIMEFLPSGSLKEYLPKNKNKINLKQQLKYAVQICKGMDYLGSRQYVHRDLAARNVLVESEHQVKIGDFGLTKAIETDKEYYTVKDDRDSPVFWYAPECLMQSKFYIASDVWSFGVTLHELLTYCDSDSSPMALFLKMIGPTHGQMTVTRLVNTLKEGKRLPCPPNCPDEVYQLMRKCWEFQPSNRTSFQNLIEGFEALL
Test: Jak biochemical HTRF assay, JAK1
Conditions: recombinant purified GST-tagged catalytic domain; HTRF format; [ATP] 31.8 μM
recordedEndpoint: IC50 (nM)

[
  {
    "compound": "N#C[C@@H]1CCN(C(=O)OCCN2CCOCC2)CC1n1cc(C(N)=O)c(Nc2ccc(F)cc2)n1 (mixture of isomers)",
    "testSystem": "JAK1 (Homo sapiens (Human), UniProt P23458)",
    "unitAbbrev": "nM",
    "IC50": 4
  },
  {
    "compound": "N#C[C@@H]1CCOC[C@H]1n1cc(C(N)=O)c(Nc2cncc(F)c2)n1 (single isomer, unassigned)",
    "testSystem": "JAK1 (Homo sapiens (Human), UniProt P23458)",
    "unitAbbrev": "nM",
    "IC50": 0.9
  },
  {
    "compound": "CN(C)CCOC(=O)N1CC[C@@H](C#N)C(n2cc(C(N)=O)c(Nc3ccc(F)cc3)n2)C1 (mixture of isomers)",
    "testSystem": "JAK1 (Homo sapiens (Human), UniProt P23458)",
    "unitAbbrev": "nM",
    "IC50": 9
  }
]

P: COC1CC(CN2CC[C@@H](C#N)[C@H](n3cc(C(N)=O)c(Nc4ccc(F)cc4)n3)C2)C1 (mixture of isomers)
Q: Cc1cc(CN2CC[C@@H](n3cc(C(N)=O)c(Nc4ccc(F)cc4)n3)[C@H](C#N)C2)no1 (racemic)
R: CN1CCC(COC(=O)N2CC[C@@H](n3cc(C(N)=O)c(Nc4ccc(F)cc4)n3)[C@H](C#N)C2)CC1 (racemic)
S: COC(C)(C)c1ccc(Nc2nn([C@H]3COCC[C@@H]3C#N)cc2C(N)=O)cc1 (single isomer, unassigned)
Query: Put the items in order so that reported IC50 rises from first to last. Your task in answering is to list the labels in the requested order.
Reply: S, Q, P, R

----------
Target: JAK1 (Homo sapiens (Human), UniProt P23458)
Assay: Jak biochemical HTRF assay, JAK1
Settings: recombinant purified GST-tagged catalytic domain; HTRF format; [ATP] 31.8 μM
recordedEndpoint: IC50 (nM)

P: N#C[C@H]1CCOC[C@@H]1n1cc(C(N)=O)c(Nc2ccc(F)nc2)n1 (single isomer, unassigned)
Q: N#C[C@H]1CCOC[C@@H]1n1cc(C(N)=O)c(Nc2ccc(Cl)c(F)c2)n1 (single isomer, unassigned)
R: N#C[C@H]1CCOC[C@@H]1n1cc(C(N)=O)c(Nc2ccc(Cl)c(Cl)c2)n1 (single isomer, unassigned)
S: N#C[C@@H]1CN(Cc2cncc(F)c2)CC[C@H]1n1cc(C(N)=O)c(Nc2ccc(F)cc2)n1 (racemic)
Query: I would appreciate it if you could sort these 4 compounds by IC50, starting from the smallest number. Your task in answering is to list the labels in the requested order.
Reply: P, S, Q, R

a: Cc1ncc(CN2CC[C@@H](C#N)[C@H](n3cc(C(N)=O)c(Nc4ccc(F)cc4)n3)C2)s1 (racemic)
b: N#C[C@@H]1CCN(CCC2CCOCC2)C[C@H]1n1cc(C(N)=O)c(Nc2ccc(F)cc2)n1 (racemic)
c: N#C[C@@H]1CN(C(=O)OCC(F)(F)F)CC[C@H]1n1cc(C(N)=O)c(Nc2ccc(F)cc2)n1 (racemic)
d: CN(C)CC(C)(C)COC(=O)N1CC[C@@H](n2cc(C(N)=O)c(Nc3ccc(F)cc3)n2)[C@H](C#N)C1 (racemic)
Query: hey, can you rank those compounds up there by IC50? biggest number first please Your task in answering is to list the labels in the requested order.
Reply: d, c, b, a
(d: 88 nM, c: 10 nM, b: 6 nM, a: 1 nM)

P: N#C[C@@H]1CCN(C(=O)OCC(F)(F)F)CC1n1cc(C(N)=O)c(Nc2ccc(F)cc2)n1 (mixture of isomers)
Q: CC(OC(=O)N1CC[C@@H](C#N)C(n2cc(C(N)=O)c(Nc3ccc(F)cc3)n2)C1)C1CC1 (mixture of isomers)
R: N#C[C@@H]1CN(C(=O)OCC(F)(F)F)CC[C@@H]1n1cc(C(N)=O)c(Nc2ccc(F)cc2)n1 (racemic)
S: N#C[C@@H]1CN(C(=O)OCCN2CCCC2)CC[C@H]1n1cc(C(N)=O)c(Nc2ccc(F)cc2)n1 (racemic)
T: N#C[C@@H]1CN(C(=O)OC2CCOCC2)CC[C@@H]1n1cc(C(N)=O)c(Nc2ccc(F)cc2)n1 (racemic)
Query: hey, can you rank those compounds up there by IC50? biggest number first please Your task in answering is to list the labels in the requested order.
Reply: T, R, S, Q, P
(T: 358 nM, R: 84 nM, S: 22 nM, Q: 6 nM, P: 4 nM)

----------
Molecular target: JAK2 (Homo sapiens (Human))
Sequence (O60674 849-1124): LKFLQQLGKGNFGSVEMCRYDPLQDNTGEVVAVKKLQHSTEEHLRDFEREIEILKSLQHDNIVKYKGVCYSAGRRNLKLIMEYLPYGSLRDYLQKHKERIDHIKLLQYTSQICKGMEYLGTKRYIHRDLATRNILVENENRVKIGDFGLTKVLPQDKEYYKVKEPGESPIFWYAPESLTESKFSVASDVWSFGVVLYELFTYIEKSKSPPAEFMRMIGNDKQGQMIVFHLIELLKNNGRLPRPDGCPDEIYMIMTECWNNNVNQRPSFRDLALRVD
Experiment: Jak biochemical HTRF assay, JAK2
Settings: recombinant purified GST-tagged catalytic domain; HTRF format; [ATP] 8.5 μM
Description: Jak Biochemical HTRF Assay Protocol Subsequent reagent additions employed an Agilent Bravo.
pIC50: −log10 of the molar value.
recordedEndpoint: pIC50

Record excerpt, results attached:
[
  {
    "compound": "CC(OC(=O)N1CC[C@@H](n2cc(C(N)=O)c(Nc3ccc(F)cc3)n2)[C@H](C#N)C1)C(F)(F)F (mixture of isomers)",
    "pIC50": 6.41
  },
  {
    "compound": "N#C[C@@H]1CCOC[C@H]1n1cc(C(N)=O)c(Nc2cncc(F)c2)n1 (single isomer, unassigned)",
    "pIC50": 8.15
  },
  {
    "compound": "N#C[C@@H]1CNCC[C@H]1n1cc(C(N)=O)c(Nc2ccc(F)cc2)n1 (racemic)",
    "pIC50": 7.09
  }
]

P: CC(OC(=O)N1CC[C@@H](C#N)C(n2cc(C(N)=O)c(Nc3ccc(F)cc3)n2)C1)C1CC1 (mixture of isomers)
Q: N#C[C@@H]1CN(C(=O)OC(CF)CF)CC[C@H]1n1cc(C(N)=O)c(Nc2ccc(F)cc2)n1 (racemic)
R: N#C[C@@H]1CN(C(=O)OCCc2ccccc2)CC[C@H]1n1cc(C(N)=O)c(Nc2ccc(F)cc2)n1 (racemic)
S: N#C[C@H]1CCOC[C@@H]1n1cc(C(N)=O)c(Nc2ccc(F)nc2)n1 (single isomer, unassigned)
Query: hey, can you rank those compounds up there by pIC50? biggest number first please Your task in answering is to list the labels in the requested order.
Reply: S, P, Q, R
(S: 8.30, P: 7.11, Q: 6.88, R: 6.08)

----------
Target: JAK1 (Homo sapiens (Human), UniProt P23458)
Assay: Jak biochemical HTRF assay, JAK1
Conditions: recombinant purified GST-tagged catalytic domain; HTRF format; [ATP] 31.8 μM
recordedEndpoint: IC50 (nM)

Record excerpt, results attached:
[
  {
    "compound": "CCOC(=O)COC(=O)N1CC[C@@H](C#N)C(n2cc(C(N)=O)c(Nc3ccc(F)cc3)n2)C1 (mixture of isomers)",
    "testSystem": "JAK1 (Homo sapiens (Human), UniProt P23458)",
    "unitAbbrev": "nM",
    "IC50": 6
  },
  {
    "compound": "C[C@H]1OCC[C@@H](C#N)[C@@H]1n1cc(C(N)=O)c(Nc2ccnc(F)c2)n1 (mixture of isomers)",
    "testSystem": "JAK1 (Homo sapiens (Human), UniProt P23458)",
    "unitAbbrev": "nM",
    "IC50": 29
  }
]

1: N#C[C@@H]1CCN(C(=O)OCCC2CC2)CC1n1cc(C(N)=O)c(Nc2ccc(F)cc2)n1 (mixture of isomers)
2: N#C[C@@H]1CN(CC2CCC2)CC[C@H]1n1cc(C(N)=O)c(Nc2ccc(F)cc2)n1
Query: From the recorded data, which exceeds the other in IC50: 1 or 2 ? Please reply using the label of the selected record.
Reply: 2
(2: 5 nM, 1: 1 nM)

----------
Biological target: JAK1 (Homo sapiens (Human), UniProt P23458)
Experiment: Jak biochemical HTRF assay, JAK1
Conditions: recombinant purified GST-tagged catalytic domain; HTRF format; [ATP] 31.8 μM
recordedEndpoint: IC50 (nM)

[
  {
    "molecule": "N#C[C@@H]1CCN(C(=O)OC2CCOCC2)CC1n1cc(C(N)=O)c(Nc2ccc(F)cc2)n1 (mixture of isomers)",
    "recordedEndpoint": "IC50",
    "unitAbbrev": "nM",
    "endpointResult": 6
  }
]

P: CC(C)(C)CCOC(=O)N1CC[C@@H](C#N)C(n2cc(C(N)=O)c(Nc3ccc(F)cc3)n2)C1 (mixture of isomers)
Q: N#C[C@@H]1CCOC[C@H]1n1cc(C(N)=O)c(Nc2ccc(Cl)c(Cl)c2)n1 (single isomer, unassigned)
Query: From the recorded data, which exceeds the other in IC50: P or Q ? Please reply using the label of the selected record.
Reply: P
(P: 8 nM, Q: 0.4 nM)
